- Procedure summary: absorption and photoluminescence characteristics (absorption and fluorescence emission spectra, quantum efficiency, lifetime)
- Format: physicochemical
- Experimental conditions: in toluene
Quantity measured: λabs, maximum absorption wavelength

Check out these entries, answers already filled in.
Compound: CCC1=C(C)C2=C(c3ccc(C#Cc4ccc(-c5cc(-c6ccc(C#Cc7ccc(C8=C9C(C)=C(CC)C(C)=[N+]9[B-](F)(F)n9c(C)c(CC)c(C)c98)cc7)cc6)cc(-c6ccc(C#Cc7ccc(C8=C9C(C)=C(CC)C(C)=[N+]9[B-](F)(F)n9c(C)c(CC)c(C)c98)cc7)cc6)c5)cc4)cc3)c3c(C)c(CC)c(C)n3[B-](F)(F)[N+]2=C1C [MC237]
λabs, maximum absorption wavelength: 528 nm
--
Compound: CCC1=C(C)C2=C(c3ccc(C#Cc4ccc(N(c5ccc(C#Cc6ccc(C7=C8C(C)=C(CC)C(C)=[N+]8[B-](F)(F)n8c(C)c(CC)c(C)c87)cc6)cc5)c5ccc(C#Cc6ccc(C7=C8C(C)=C(CC)C(C)=[N+]8[B-](F)(F)n8c(C)c(CC)c(C)c87)cc6)cc5)cc4)cc3)c3c(C)c(CC)c(C)n3[B-](F)(F)[N+]2=C1C [CL64]
λabs, maximum absorption wavelength: 528 nm
--
Compound: CCC1=C(C)C2=C(c3ccc(-c4ccc(C5=C6C(C)=C(CC)C(C)=[N+]6[B-](F)(F)n6c(C)c(CC)c(C)c65)cc4)cc3)c3c(C)c(CC)c(C)n3[B-](F)(F)[N+]2=C1C [LP42]
λabs, maximum absorption wavelength: 527 nm
--
Compound: CCC1=C(C)C2=C(c3ccc(-c4cc(-c5ccc(C6=C7C(C)=C(CC)C(C)=[N+]7[B-](F)(F)n7c(C)c(CC)c(C)c76)cc5)cc(-c5ccc(C6=C7C(C)=C(CC)C(C)=[N+]7[B-](F)(F)n7c(C)c(CC)c(C)c76)cc5)c4)cc3)c3c(C)c(CC)c(C)n3[B-](F)(F)[N+]2=C1C [LP52]
λabs, maximum absorption wavelength: 527 nm

We next turn to a different compound, shown below.
*Q* Requested field: λabs, maximum absorption wavelength. Item: CCC1=C(C)C2=C(c3ccc(-c4cn(-c5ccc(C#Cc6ccc(N(c7ccc(C#Cc8ccc(-n9cc(-c%10ccc(C%11=C%12C(C)=C(CC)C(C)=[N+]%12[B-](F)(F)n%12c(C)c(CC)c(C)c%12%11)cc%10)nn9)cc8)cc7)c7ccc(C#Cc8ccc(-n9cc(-c%10ccc(C%11=C%12C(C)=C(CC)C(C)=[N+]%12[B-](F)(F)n%12c(C)c(CC)c(C)c%12%11)cc%10)nn9)cc8)cc7)cc6)cc5)nn4)cc3)c3c(C)c(CC)c(C)n3[B-](F)(F)[N+]2=C1C [MC263]
*A* 528 nm

---

I'd be grateful if you could share measured ε, molar extinction coefficient for these entries.
- Procedure summary: absorption and photoluminescence characteristics (absorption and fluorescence emission spectra, quantum efficiency, lifetime)
- Type: physicochemical
- Experimental conditions: in toluene
Answers are plain numbers, in M⁻¹ cm⁻¹.

Batch request: ε, molar extinction coefficient for each of the following compounds.
1. CCC1=C(C)C2=C(c3ccc(C#Cc4ccc(-c5cc(-c6ccc(C#Cc7ccc(C8=C9C(C)=C(CC)C(C)=[N+]9[B-](F)(F)n9c(C)c(CC)c(C)c98)cc7)cc6)cc(-c6ccc(C#Cc7ccc(C8=C9C(C)=C(CC)C(C)=[N+]9[B-](F)(F)n9c(C)c(CC)c(C)c98)cc7)cc6)c5)cc4)cc3)c3c(C)c(CC)c(C)n3[B-](F)(F)[N+]2=C1C [MC237]
2. CCC1=C(C)C2=C(c3ccc(-c4cc(-c5ccc(C6=C7C(C)=C(CC)C(C)=[N+]7[B-](F)(F)n7c(C)c(CC)c(C)c76)cc5)cc(-c5ccc(C6=C7C(C)=C(CC)C(C)=[N+]7[B-](F)(F)n7c(C)c(CC)c(C)c76)cc5)c4)cc3)c3c(C)c(CC)c(C)n3[B-](F)(F)[N+]2=C1C [LP52]
3. CCC1=C(C)C2=C(c3ccc(C#Cc4ccc(N(c5ccc(C#Cc6ccc(C7=C8C(C)=C(CC)C(C)=[N+]8[B-](F)(F)n8c(C)c(CC)c(C)c87)cc6)cc5)c5ccc(C#Cc6ccc(C7=C8C(C)=C(CC)C(C)=[N+]8[B-](F)(F)n8c(C)c(CC)c(C)c87)cc6)cc5)cc4)cc3)c3c(C)c(CC)c(C)n3[B-](F)(F)[N+]2=C1C [CL64]
4. CCC1=C(C)C2=C(c3ccc(-c4cn(-c5ccc(C#Cc6ccc(N(c7ccc(C#Cc8ccc(-n9cc(-c%10ccc(C%11=C%12C(C)=C(CC)C(C)=[N+]%12[B-](F)(F)n%12c(C)c(CC)c(C)c%12%11)cc%10)nn9)cc8)cc7)c7ccc(C#Cc8ccc(-n9cc(-c%10ccc(C%11=C%12C(C)=C(CC)C(C)=[N+]%12[B-](F)(F)n%12c(C)c(CC)c(C)c%12%11)cc%10)nn9)cc8)cc7)cc6)cc5)nn4)cc3)c3c(C)c(CC)c(C)n3[B-](F)(F)[N+]2=C1C [MC263]
5. CCC1=C(C)C2=C(c3ccc(-c4ccc(C5=C6C(C)=C(CC)C(C)=[N+]6[B-](F)(F)n6c(C)c(CC)c(C)c65)cc4)cc3)c3c(C)c(CC)c(C)n3[B-](F)(F)[N+]2=C1C [LP42]

*A*
216400
244300
221700
211100
161900

---

- Procedure summary: two-photon absorption (TPA) cross-sections determined by two-photon excitation fluorescence (TPEF)
- Assay type: physicochemical
- Experimental conditions: in toluene, 10^−4 M; at 700 nm
Quantity measured: σ2, effective TPA cross-section at 700 nm (GM)
Give bare numbers, in GM.

Take a look at these entries with their results.
Structure notation: CCC1=C(C)C2=C(c3ccc(-c4ccc(C5=C6C(C)=C(CC)C(C)=[N+]6[B-](F)(F)n6c(C)c(CC)c(C)c65)cc4)cc3)c3c(C)c(CC)c(C)n3[B-](F)(F)[N+]2=C1C
Readout value: 57

Structure notation: CCC1=C(C)C2=C(c3ccc(-c4cc(-c5ccc(C6=C7C(C)=C(CC)C(C)=[N+]7[B-](F)(F)n7c(C)c(CC)c(C)c76)cc5)cc(-c5ccc(C6=C7C(C)=C(CC)C(C)=[N+]7[B-](F)(F)n7c(C)c(CC)c(C)c76)cc5)c4)cc3)c3c(C)c(CC)c(C)n3[B-](F)(F)[N+]2=C1C
Readout value: 82

Structure notation: CCC1=C(C)C2=C(c3ccc(C#Cc4ccc(-c5cc(-c6ccc(C#Cc7ccc(C8=C9C(C)=C(CC)C(C)=[N+]9[B-](F)(F)n9c(C)c(CC)c(C)c98)cc7)cc6)cc(-c6ccc(C#Cc7ccc(C8=C9C(C)=C(CC)C(C)=[N+]9[B-](F)(F)n9c(C)c(CC)c(C)c98)cc7)cc6)c5)cc4)cc3)c3c(C)c(CC)c(C)n3[B-](F)(F)[N+]2=C1C
Readout value: 93

Structure notation: CCC1=C(C)C2=C(c3ccc(-c4cn(-c5ccc(C#Cc6ccc(N(c7ccc(C#Cc8ccc(-n9cc(-c%10ccc(C%11=C%12C(C)=C(CC)C(C)=[N+]%12[B-](F)(F)n%12c(C)c(CC)c(C)c%12%11)cc%10)nn9)cc8)cc7)c7ccc(C#Cc8ccc(-n9cc(-c%10ccc(C%11=C%12C(C)=C(CC)C(C)=[N+]%12[B-](F)(F)n%12c(C)c(CC)c(C)c%12%11)cc%10)nn9)cc8)cc7)cc6)cc5)nn4)cc3)c3c(C)c(CC)c(C)n3[B-](F)(F)[N+]2=C1C
Readout value: 185

Turning now to a further compound:
*Q* Give the measured σ2, effective TPA cross-section at 700 nm of `CCC1=C(C)C2=C(c3ccc(C#Cc4ccc(N(c5ccc(C#Cc6ccc(C7=C8C(C)=C(CC)C(C)=[N+]8[B-](F)(F)n8c(C)c(CC)c(C)c87)cc6)cc5)c5ccc(C#Cc6ccc(C7=C8C(C)=C(CC)C(C)=[N+]8[B-](F)(F)n8c(C)c(CC)c(C)c87)cc6)cc5)cc4)cc3)c3c(C)c(CC)c(C)n3[B-](F)(F)[N+]2=C1C` .
*A* 190

---

I'd be grateful if you could share measured Φ, fluorescence quantum efficiency for these entries.
- Procedure summary: absorption and photoluminescence characteristics (absorption and fluorescence emission spectra, quantum efficiency, lifetime)
- Assay type: physicochemical
- Experimental conditions: in toluene; determined with respect to fluorescein in NaOH 0.1N

Solved entries:
Structure notation: CCC1=C(C)C2=C(c3ccc(-c4cn(-c5ccc(C#Cc6ccc(N(c7ccc(C#Cc8ccc(-n9cc(-c%10ccc(C%11=C%12C(C)=C(CC)C(C)=[N+]%12[B-](F)(F)n%12c(C)c(CC)c(C)c%12%11)cc%10)nn9)cc8)cc7)c7ccc(C#Cc8ccc(-n9cc(-c%10ccc(C%11=C%12C(C)=C(CC)C(C)=[N+]%12[B-](F)(F)n%12c(C)c(CC)c(C)c%12%11)cc%10)nn9)cc8)cc7)cc6)cc5)nn4)cc3)c3c(C)c(CC)c(C)n3[B-](F)(F)[N+]2=C1C
Readout value: 1

Structure notation: CCC1=C(C)C2=C(c3ccc(-c4ccc(C5=C6C(C)=C(CC)C(C)=[N+]6[B-](F)(F)n6c(C)c(CC)c(C)c65)cc4)cc3)c3c(C)c(CC)c(C)n3[B-](F)(F)[N+]2=C1C
Readout value: 0.72

Structure notation: CCC1=C(C)C2=C(c3ccc(C#Cc4ccc(N(c5ccc(C#Cc6ccc(C7=C8C(C)=C(CC)C(C)=[N+]8[B-](F)(F)n8c(C)c(CC)c(C)c87)cc6)cc5)c5ccc(C#Cc6ccc(C7=C8C(C)=C(CC)C(C)=[N+]8[B-](F)(F)n8c(C)c(CC)c(C)c87)cc6)cc5)cc4)cc3)c3c(C)c(CC)c(C)n3[B-](F)(F)[N+]2=C1C
Readout value: 0.93

Structure notation: CCC1=C(C)C2=C(c3ccc(C#Cc4ccc(-c5cc(-c6ccc(C#Cc7ccc(C8=C9C(C)=C(CC)C(C)=[N+]9[B-](F)(F)n9c(C)c(CC)c(C)c98)cc7)cc6)cc(-c6ccc(C#Cc7ccc(C8=C9C(C)=C(CC)C(C)=[N+]9[B-](F)(F)n9c(C)c(CC)c(C)c98)cc7)cc6)c5)cc4)cc3)c3c(C)c(CC)c(C)n3[B-](F)(F)[N+]2=C1C
Readout value: 0.89

Shift focus to the following entry.
*Q* Quick one: Φ, fluorescence quantum efficiency of `CCC1=C(C)C2=C(c3ccc(-c4cc(-c5ccc(C6=C7C(C)=C(CC)C(C)=[N+]7[B-](F)(F)n7c(C)c(CC)c(C)c76)cc5)cc(-c5ccc(C6=C7C(C)=C(CC)C(C)=[N+]7[B-](F)(F)n7c(C)c(CC)c(C)c76)cc5)c4)cc3)c3c(C)c(CC)c(C)n3[B-](F)(F)[N+]2=C1C` ?
*A* 0.69
